Please provide measured max activity for the entries that follow.
- assay.overview: NIH:OVCAR-3 ovarian cancer cell cytotoxicity, dose response, PAX8 inhibitor project, plate reader, dry powder samples (AID 743044)
- test.context: NIH:OVCAR-3 ovarian cancer cell viability; at 35 µM, stronger effect = lower value unless noted
Potency and affinity values are given separately. Results filed as inconclusive are left out. Activity calls are given as the source filed them. No rule for the calls is given here.

Consider the worked cases shown below.
C[C@@H]1CCCCO[C@@H](CN(C)C(=O)C2CCCCC2)[C@H](C)CN([C@H](C)CO)C(=O)c2cc(NC(=O)Nc3ccc(F)cc3)ccc2O1 :: -21.5% (inactive)
Cc1ccc(S(=O)(=O)Nc2ccc3c(c2)C(=O)N([C@H](C)CO)C[C@@H](C)[C@H](CN(C)S(=O)(=O)c2ccc(Cl)cc2)OCCCC[C@H](C)O3)cc1 :: -15.5% (inactive)

Summary for this compound, `N#Cc1cccc(-c2ccc3c(c2)[C@@H]2[C@@H](CCN2S(=O)(=O)c2ccc(F)cc2)[C@@H](CO)N3)c1` : max activity is 5.91% (inactive)

----------
- assay.overview: binders of probe aFGF2 on microarray, primary screen, stem cell growth factor project, biochemical, small-molecule microarray, fluorescence 635/667 (AID 1067);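 also: measures binding of biotinylated aFGF2 protein to printed compounds on slides; z-score merges feature fluorescence and signal-to-noise across triplicate slides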
- test.context: higher = more signal
readout.type: composite z-score

C=C(COC)C(=O)CC[C@H](OC(=O)c1ccccc1-c1ccccc1C(=O)O)c1ccccc1OCCO :: -0.129
COCCCNC(=O)[C@@]1(Cc2ccccc2CN=[N+]=[N-])COC(c2ccc(OCCCO)cc2)=N1 :: 0.302
C=C(COC)C(=O)CC[C@H](OC(=O)c1cccnc1)c1cccc(OCCO)c1 :: 0.119
C=CCC(OC(C)=O)[C@@H]1[C@@H](N(Cc2cc3ccccc3o2)C(=O)c2ccc(-c3ccccc3)cc2)c2cc(OCCCO)ccc2N1C(=O)c1ccc(-c2ccccc2)cc1 (stereo not given in full) :: -0.0985
[N-]=[N+]=Nc1ccccc1[C@H]1OC(c2ccc(OCCCO)cc2)=N[C@@]1(Cc1ccccc1)C(N)=O :: 0.317

# return composite z-score for each item in the list
1. Cc1ccc(N2C(=O)c3ccccc3[C@](C)(C(=O)NC3CC3)[C@@H]2c2ccc(CO)cc2)nc1
2. COCCOC(=O)N1C(=O)[C@@]2(c3ccccc31)[C@H](C(=O)Nc1nc3ccccc3s1)[C@H]1C(=O)O[C@H](c3ccccc3)[C@H](c3ccccc3)N1[C@@H]2c1ccc(O)cc1
3. COC(=O)[C@@]1(CCC(=O)OC(C)(C)C)COC(c2ccc(OCCCO)cc2)=N1
4. CC(C)N1CC=CC23O[C@@H]4/C=C\CCCOC(=O)C4[C@H]2C(=O)N(CCCO)[C@@H]3C1=O (stereo not given in full)
5. CC(C)[Si](C#C[Si](C(C)C)(C(C)C)C(C)C)(O[C@H](C)c1cn([C@H](C)c2ccccc2)nn1)C(C)C
6. COC(=O)C(CC#Cc1ccc2c(c1)[C@]1(C(=O)N2)[C@H](c2ccccc2OCCO)N2[C@H](c3ccccc3)[C@H](c3ccccc3)OC(=O)[C@H]2[C@@H]1C(=O)N1CCCCCCC1)C(=O)OC
7. COc1ccc(C#Cc2ccc3c(c2)[C@]2(C(=O)N3)[C@H](c3ccc(O)cc3)N3[C@H](c4ccccc4)[C@H](c4ccccc4)OC(=O)[C@H]3[C@@H]2C(N)=O)cc1

1: -0.0948; 2: 0.074; 3: -0.212; 4: -0.01; 5: -0.0402; 6: 0.984; 7: 0.0519
